Tested on: myeloid leukemia patient primary cells Pat.2
test.protocol: area under dose-response curve (viability, 1 nM-10 uM) (fraction (0-1)); higher = more sensitive
assay.setup: 72 h
measured.property: area under dose-response curve
Give only the figure.

Would you please look over these solved cases?
>>> quantitative_result("O=C1c2cc([N+](=O)[O-])ccc2-n2c1nc1ccccc1c2=O")
0.0426
>>> quantitative_result("Nc1nc(Cl)nc2c1ncn2[C@H]1C[C@H](O)[C@@H](CO)O1")
0.463

Query: For COC(=O)[C@]12CCC(C)(C)C[C@H]1[C@H]1C(=O)C=C3[C@@]4(C)C=C(C#N)C(=O)C(C)(C)[C@@H]4CC[C@@]3(C)[C@]1(C)CC2 , what is its reported area under dose-response curve?
Result: 0.28

Query: Can you share its area under dose-response curve? I mean this compound: CN(C)C(=O)n1nnnc1Cc1ccc(-c2ccccc2)cc1
Result: 0.0497
